Hi there, I'd appreciate the recorded self-cleavage for every entry that follows.
B1: CPEB3 Ribozyme (parent)
chain: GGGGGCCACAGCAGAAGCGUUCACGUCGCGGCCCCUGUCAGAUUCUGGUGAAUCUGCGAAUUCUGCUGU

Variants of: B1
Method summary: self-cleavage, relative activity (ratio to wild type); higher = more cleavage; co-transcriptional
One number for each entry.

Worked cases, self-cleavage given:
{"Entry sequence": "GGGGGCCACAGCAGAAGAGUUCACGUCGCGGCCCCUGUCAGAUUCUGGUGAAUCUGCGGAUUCUGCUGU [C18A A59G]", "Measured value": 0.145}
{"Entry sequence": "GGGGGCCACAGCAGAACCGUUUACGUCGCGGCCCCUGUCAGAUUCUGGUGAAUCUGCGAAUUCUGCUGU [G17C C22U]", "Measured value": 0.145}
{"Entry sequence": "GGGGGCCACAGCAGAAGCGUUCGCGUCGCGGCCCCUGUCAGAUUCUGGUGAAUCUGCGAAAUCUGCUGU [A23G U61A]", "Measured value": 0.867}
{"Entry sequence": "GGGGGCCACAGCAGAAUCGUUCACGUCGCGGCCCCUGUCAGAUUCUGGUGAAUCUGCGAAUUCUGAUGU [G17U C66A]", "Measured value": 0.239}
{"Entry sequence": "GGGAGCCACAGCAGAAGCGUUCACGUCGCGGCCCCUGUCAUAUUCUGGUGAAUCUGCGAAUUCUGCUGU [G4A G41U]", "Measured value": 0.525}
{"Entry sequence": "GGGGGCCACAGCGGAAGCGUUCACGACGCGGCCCCUGUCAGAUUCUGGUGAAUCUGCGAAUUCUGCUGU [A13G U26A]", "Measured value": 0.767}

For every record below, what is its self-cleavage?
1. GGGGGCCACAGCAGAAGCGUUCACGUCGGGGCCCCUAUCAGAUUCUGGUGAAUCUGCGAAUUCUGCUGU [C29G G37A]
2. GGCGGCCACAGCAGAAGCGUUCACGUCGCGGGCCCUGUCAGAUUCUGGUGAAUCUGCGAAUUCUGCUGU [G3C C32G]
3. GGGGGCCACAGCAGAAGCGUUCACGUCACGGCCCCUGUCAAAUUCUGGUGAAUCUGCGAAUUCUGCUGU [G28A G41A]
4. GGGGGCCACAGCAGAAGCGUUCACGUGGCGGCCCCUGUCAGAUUCUGUUGAAUCUGCGAAUUCUGCUGU [C27G G48U]
5. GGGGGCCACAGCAGAAGCGUUCACGUCGCGGCCCCUGUCAGGUUCUGGUGAAUCUGCGAUUUCUGCUGU [A42G A60U]
6. GGGGGCCACAGCAGAAGCGUUCACGUCGCGGCCCCUGUCAGAUACUGGUAAAUCUGCGAAUUCUGCUGU [U44A G50A]

OUTPUT:
1. 0.178
2. 0.0514
3. 0.178
4. 0.163
5. 0.329
6. 0.962
